- tested_on: RARγ (Homo sapiens, UniProt P13631)
- Sequence (P13631 1-454): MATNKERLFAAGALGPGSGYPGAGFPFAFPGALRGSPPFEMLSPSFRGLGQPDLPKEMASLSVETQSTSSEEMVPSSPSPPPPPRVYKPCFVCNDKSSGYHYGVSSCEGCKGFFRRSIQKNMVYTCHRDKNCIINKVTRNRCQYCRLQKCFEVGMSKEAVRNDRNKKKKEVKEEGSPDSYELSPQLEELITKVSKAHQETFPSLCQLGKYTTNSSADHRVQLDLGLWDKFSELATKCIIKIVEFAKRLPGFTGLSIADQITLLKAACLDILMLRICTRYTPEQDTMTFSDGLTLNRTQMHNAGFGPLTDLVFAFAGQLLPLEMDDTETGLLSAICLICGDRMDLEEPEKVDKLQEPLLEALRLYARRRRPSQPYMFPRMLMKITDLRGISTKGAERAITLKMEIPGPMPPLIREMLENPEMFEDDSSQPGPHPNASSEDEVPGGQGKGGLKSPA
property_label: pKd
In textbook form, pKd equals minus log to base ten of the concentration in mol/L.

The reported pKd of the compound CC1(C)CC2(CC2)Oc2ccc(C#Cc3ccc(C(=O)O)cc3)cc21 was 6.44

Others:
The reported pKd of the compound CC1(C)CC(C)(C)c2cc(C#Cc3ccc(C(=O)O)cc3)cc(C3CC3)c2O1 was 8.60

The reported pKd of the compound CC(C)OC1(c2ccc(C#Cc3ccc(C(=O)O)cc3)cc2)CC1 was 6.45

The reported pKd of the compound Cc1cc(C#Cc2ccc(C(=O)O)cc2)ccc1C1(OCc2ccccc2)CC1 was 5.98

The reported pKd of the compound CC1(C)CC(C)(C)c2cc(C#Cc3ccc(CC(=O)O)cc3)cc(C3CC3)c2O1 was 6.31

The reported pKd of the compound CC1(C)CC(C)(C)c2cc(C#Cc3ccc(CC(=O)O)c(F)c3)cc(C3CC3)c2O1 was 5.54

###

- tested_on: RARγ (Homo sapiens)
- assay_procedure: chimeric receptor transactivation assay, RARγ
- run_parameters: EC50 line of EC50/(EFFICACY)/Kd, read-out: RAR EC50 γ
Reported pEC50 is given for each of the following molecules.
In textbook form, pEC50 equals minus log to base ten of the concentration in mol/L.

Form field pEC50 for item CCc1cc(C#Cc2ccc(C(=O)O)cc2)ccc1C1(OCc2ccccc2)CC1 [Compound 93] on RARγ (Homo sapiens): 8.00

Form field pEC50 for item CC1(C)CC2(CC2)Oc2ccc(C#Cc3ccc(C(=O)O)c(F)c3)cc21 [Compound 44] on RARγ (Homo sapiens): 8.12

Form field pEC50 for item Cc1cc(C#Cc2ccc(C(=O)O)cc2)ccc1C1(OCc2ccccc2)CC1 [Compound 81] on RARγ (Homo sapiens): 6.74

Form field pEC50 for item CN(C1CC1)C1CCC(C)(C)c2cc(C#Cc3ccc(C(=O)O)c(F)c3)ccc21 (stereo not shown) [Compound 13] on RARγ (Homo sapiens): 6.94

###

- tested_on: RARα (Homo sapiens, UniProt P10276)
- Sequence (P10276 1-462): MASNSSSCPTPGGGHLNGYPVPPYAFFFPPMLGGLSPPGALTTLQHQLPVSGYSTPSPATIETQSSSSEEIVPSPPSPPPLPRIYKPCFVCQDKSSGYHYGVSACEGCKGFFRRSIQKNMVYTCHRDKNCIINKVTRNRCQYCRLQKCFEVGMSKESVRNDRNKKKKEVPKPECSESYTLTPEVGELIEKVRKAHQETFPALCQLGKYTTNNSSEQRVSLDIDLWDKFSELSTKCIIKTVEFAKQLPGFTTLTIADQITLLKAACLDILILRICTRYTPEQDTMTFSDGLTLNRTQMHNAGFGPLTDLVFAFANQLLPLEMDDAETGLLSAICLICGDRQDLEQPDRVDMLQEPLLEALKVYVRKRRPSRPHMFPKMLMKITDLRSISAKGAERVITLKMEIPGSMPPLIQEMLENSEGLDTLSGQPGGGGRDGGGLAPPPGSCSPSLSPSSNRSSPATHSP
Reported log10(Kd) is given for each of the following molecules.
Scale type: logarithmic (base 10). Underlying Kd unit: µM.

The reported log10(Kd) of the molecule Cc1cc(C#Cc2ccc(C(=O)O)cc2)ccc1C1(OCC(C)(C)C)CC1 was 0.53

The reported log10(Kd) of the molecule CCCNC1(c2ccc(C#Cc3ccc(C(=O)O)cc3)cc2)CC1 was 1.32

Others:
The reported log10(Kd) of the molecule CC1(C)CC(C)(C)c2cc(C#Cc3ccc(C(=O)O)c(F)c3)ccc2O1 was -1.85

The reported log10(Kd) of the molecule CC1(C)CC(C)(C)c2cc(C#Cc3ccc(CC(=O)O)cc3)ccc2O1 was 1.32

The reported log10(Kd) of the molecule CC1(C)CC(C)(C)c2cc(C#Cc3ccc(CC(=O)O)c(F)c3)ccc2O1 was 1.43

The reported log10(Kd) of the molecule CCc1cc(C#Cc2ccc(C(=O)O)cc2)ccc1C1(OCc2ccccc2)CC1 was 0.54

The reported log10(Kd) of the molecule CC1(C)CC2(CC2)Oc2ccc(C#Cc3ccc(C(=O)O)c(F)c3)cc21 was -1.43

The reported log10(Kd) of the molecule CC1(C)CC2(CC2)Oc2ccc(C#Cc3ccc(C(=O)O)cc3)cc21 was -1.16

The reported log10(Kd) of the molecule COC1(c2ccc(C#Cc3ccc(C(=O)O)cc3)cc2)CC1 was -0.33

The reported log10(Kd) of the molecule CC1(C)CC(C)(C)c2cc(C#Cc3ccc(CC(=O)O)cc3)cc(C3CC3)c2O1 was 1.11

The reported log10(Kd) of the molecule CN(C1CC1)C1CCC(C)(C)c2cc(C#Cc3ccc(C(=O)O)cc3)ccc21 (stereo not drawn) was -0.84

The reported log10(Kd) of the molecule CC(C)OC1(c2ccc(C#Cc3ccc(CC(=O)O)cc3)cc2)CC1 was 1.04

The reported log10(Kd) of the molecule CCCN(CCC)C1(c2ccc(C#Cc3ccc(C(=O)O)cc3)cc2)CC1 was 0.31

The reported log10(Kd) of the molecule CC1(C)CCC(=O)c2ccc(C#Cc3ccc(CC(=O)O)cc3)cc21 was 0.96

The reported log10(Kd) of the molecule CC(C)OC1(c2ccc(C#Cc3ccc(C(=O)O)cc3)cc2)CC1 was -0.31

###

Reported pIC50 is given for each of the following molecules.
- tested_on: P450RAI-1 (Homo sapiens, UniProt O43174)
- Sequence (O43174 whole entry): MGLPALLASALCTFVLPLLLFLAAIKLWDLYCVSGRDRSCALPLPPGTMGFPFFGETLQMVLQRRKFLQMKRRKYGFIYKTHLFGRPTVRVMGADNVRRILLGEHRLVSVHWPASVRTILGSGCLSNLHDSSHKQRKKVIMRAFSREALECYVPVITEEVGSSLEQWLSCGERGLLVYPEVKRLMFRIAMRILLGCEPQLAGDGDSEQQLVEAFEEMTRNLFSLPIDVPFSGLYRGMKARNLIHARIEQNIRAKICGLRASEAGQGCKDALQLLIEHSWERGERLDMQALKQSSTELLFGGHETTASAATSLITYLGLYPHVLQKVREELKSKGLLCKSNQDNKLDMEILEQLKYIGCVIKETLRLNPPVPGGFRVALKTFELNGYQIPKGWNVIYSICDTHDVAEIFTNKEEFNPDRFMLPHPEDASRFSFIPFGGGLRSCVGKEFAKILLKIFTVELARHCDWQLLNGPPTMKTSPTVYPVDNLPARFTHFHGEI
- assay_procedure: P450RAI-1 cell-based inhibitor assay
- run_parameters: P450RAI-1 stably transfected HeLa cells, [3H]-RA metabolism, 3 hours at 37° C.; read-out: P450RAI INHIBITION DATA INTACT HELA IC50
In textbook form, pIC50 equals minus log to base ten of the concentration in mol/L.

The reported pIC50 of the molecule CC1(C)CC2(CC2)Oc2c(C3CC3)cc(C#Cc3ccc(CC(=O)O)cc3)cc21 was 7.52

Others:
The reported pIC50 of the molecule CN(C1CC1)C1CCC(C)(C)c2cc(C#Cc3ccc(C(=O)O)cc3)ccc21 (stereo not drawn) was 5.52

###

- tested_on: RARγ (Homo sapiens, UniProt P13631)
- Sequence (P13631 1-454): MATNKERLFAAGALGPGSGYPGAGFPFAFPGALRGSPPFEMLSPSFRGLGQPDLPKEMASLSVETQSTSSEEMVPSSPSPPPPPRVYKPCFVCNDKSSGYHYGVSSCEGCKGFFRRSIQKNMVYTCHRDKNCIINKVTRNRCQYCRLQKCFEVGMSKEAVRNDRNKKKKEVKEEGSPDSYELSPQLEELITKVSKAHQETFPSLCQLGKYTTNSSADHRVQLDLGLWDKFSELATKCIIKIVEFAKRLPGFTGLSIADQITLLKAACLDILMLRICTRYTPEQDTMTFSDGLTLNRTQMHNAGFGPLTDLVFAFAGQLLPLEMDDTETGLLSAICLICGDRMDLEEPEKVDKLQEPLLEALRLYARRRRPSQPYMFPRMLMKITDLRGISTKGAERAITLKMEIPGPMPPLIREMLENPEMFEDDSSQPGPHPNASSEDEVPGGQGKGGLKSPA
Reported pKd is given for each of the following molecules.
In textbook form, pKd equals minus log to base ten of the concentration in mol/L.

These solved cases illustrate the format of a correct answer.
Form field pKd for item CCCNC1(c2ccc(C#Cc3ccc(C(=O)O)cc3)cc2)CC1 on RARγ (Homo sapiens, UniProt P13631): 4.89

Form field pKd for item CN(C1CC1)C1CCC(C)(C)c2cc(C#Cc3ccc(C(=O)O)cc3)ccc21 (centres unmarked) on RARγ (Homo sapiens, UniProt P13631): 6.80

Form field pKd for item O=C(O)c1ccc(C#Cc2ccc(C3(OCc4ccccc4)CC3)cc2)cc1 on RARγ (Homo sapiens, UniProt P13631): 7.80

Moving on to the next molecule.
Form field pKd for item O=C(O)c1ccc(C#Cc2ccc(C3(NCc4ccccc4)CC3)cc2)cc1 on RARγ (Homo sapiens, UniProt P13631): 6.16
